These measurements were taken from patent US20240360178A1.

target: human PD-1 (Jurkat-PD-1 cells) / PE-labeled human PD-L1-Ig (Homo sapiens); construct: expressed in transfected cells; host or cells: Jurkat cell line over-expressing human PD-1; assay: Jurkat-PD-1 Cell Binding High-Content Screening Assay (CBA); Jurkat hPD1-PDL1 assay; settings: Jurkat cell line over-expressing human PD-1; PE-labeled PD-L1-Ig 20 nM final; compound incubated 2 hours at 37° C.; read-out: Jurkat HPD1-PDL1 IC50
Sequence (Q15116 25-288): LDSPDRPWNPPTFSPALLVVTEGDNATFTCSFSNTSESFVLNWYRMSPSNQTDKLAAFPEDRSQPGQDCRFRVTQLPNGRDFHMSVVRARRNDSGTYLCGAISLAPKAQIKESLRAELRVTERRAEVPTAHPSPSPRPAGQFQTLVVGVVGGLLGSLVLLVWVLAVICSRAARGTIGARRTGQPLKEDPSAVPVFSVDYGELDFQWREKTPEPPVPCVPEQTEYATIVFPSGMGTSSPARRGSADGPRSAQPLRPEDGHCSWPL
Positions of bridges follow the written chain, without caps; N, C: chain ends. Non-standard residues stand in square brackets, D forms with d. Residues, ends and D or L forms follow the SMILES beside them. Bip = N[C@@H](Cc1ccc(-c2ccccc2)cc1)C(=O)O; NMeA = CN[C@@H](C)C(=O)O; Orn = NCCC[C@H](N)C(=O)O; Dab = NCC[C@H](N)C(=O)O; Sar = CNCC(=O)O
reported-metric: pIC50
Quick note: pIC50 values are minus log10 of concentrations in mol/L.

- compound: "CC(C)C[C@@H]1NC(=O)[C@H](Cc2c[nH]c3ccccc23)NC(=O)[C@H](CC(=O)O)NC(=O)[C@H](Cc2ccc(O)cc2)NC(=O)[C@H](CC(N)=O)NC(=O)CSC[C@@H](C(=O)NCC(N)=O)NC(=O)[C@H](CO)NC(=O)[C@H](C(C)C)NC(=O)[C@H](CC(C)C)NC(=O)[C@H](CC(N)=O)NC(=O)CN(C)C(=O)[C@H](C)N(C)C(=O)[C@H](C(C)C)NC(=O)[C@H](Cc2ccc(-c3ccccc3)cc2)NC1=O [Example 1140] ({CH2CO}-NYDWL[Bip]V[NMeA][Sar]NLVSCG-NH2; thioether N-14)"
  numeric-value: 6.22

Which pIC50 is listed for CC(C)C[C@@H]1NC(=O)[C@H](Cc2c[nH]c3ccccc23)NC(=O)[C@H](CC(=O)O)NC(=O)[C@H](Cc2ccc(O)cc2)NC(=O)[C@H](Cc2ccccc2)NC(=O)CSC[C@@H](C(=O)NCC(N)=O)NC(=O)[C@H](CO)NC(=O)[C@H](C(C)C)NC(=O)[C@H](CC(C)C)NC(=O)[C@H](CCN)NC(=O)[C@H]2CCCN2C(=O)[C@H](CCCN)NC(=O)[C@H](C(C)C)NC(=O)[C@H](Cc2ccc(-c3ccccc3)cc2)NC1=O [Example 1423] ({CH2CO}-FYDWL[Bip]V[Orn][dP][Dab]LVSCG-NH2; thioether N-14) ?
7.00

----------
molecular target: human PD-1 (Jurkat-PD-1 cells) / PE-labeled human PD-L1-Ig (Homo sapiens); construct: expressed in transfected cells; host or cells: Jurkat cell line over-expressing human PD-1; experiment: Jurkat-PD-1 Cell Binding High-Content Screening Assay (CBA); Jurkat hPD1-PDL1 assay; conditions: Jurkat cell line over-expressing human PD-1; PE-labeled PD-L1-Ig 20 nM final; compound incubated 2 hours at 37° C.; read-out: Jurkat HPD1-PDL1 IC50
Positions of bridges follow the written chain, without caps; N, C: chain ends. Non-standard residues stand in square brackets, D forms with d. Residues, ends and D or L forms follow the SMILES beside them. Bip = N[C@@H](Cc1ccc(-c2ccccc2)cc1)C(=O)O; NMeF = CN[C@@H](Cc1ccccc1)C(=O)O; NMeA = CN[C@@H](C)C(=O)O; Nle = CCCC[C@H](N)C(=O)O
reported-metric: IC50 (nM)
Give the quantity in nM, number only.

- compound: "CCCC[C@@H]1NC(=O)[C@H](CCCCN)NC(=O)[C@H](Cc2ccccc2)N(C)C(=O)[C@H](CC(=O)O)NC(=O)[C@H](CCCNC(=N)N)NC(=O)[C@H](Cc2ccc(-c3ccccc3)cc2)NC(=O)[C@H](C(C)C)NC(=O)[C@H](Cc2c[nH]c3ccccc23)NC(=O)[C@H](CC(=O)O)NC(=O)[C@H](Cc2ccc(O)cc2)NC(=O)[C@H](Cc2ccccc2)NC(=O)CSC[C@@H](C(=O)NCC(N)=O)NC(=O)[C@H](CCCNC(=N)N)NC(=O)[C@H](C(C)C)NC1=O [Example 1192] ({CH2CO}-FYDWV[Bip]RD[NMeF]K[Nle]VRCG-NH2; thioether N-14)"
  measured-target: "human PD-1 (Jurkat-PD-1 cells) / PE-labeled human PD-L1-Ig (Homo sapiens)"
  IC50, nM: 920

Then this compound:
Request - read-out IC50 | tested on human PD-1 (Jurkat-PD-1 cells) / PE-labeled human PD-L1-Ig (Homo sapiens) | compound CC(C)C[C@@H]1NC(=O)CSC[C@@H](C(=O)NCC(N)=O)NC(=O)[C@H]([C@@H](C)O)NC(=O)[C@H](C(C)C)NC(=O)[C@H](CC(C)C)NC(=O)[C@H](CCCNC(=N)N)NC(=O)[C@H](Cc2ccccc2)N(C)C(=O)[C@H](C)N(C)C(=O)[C@H](CCCNC(=N)N)NC(=O)[C@H](Cc2ccc(-c3ccccc3)cc2)NC(=O)[C@H](C(C)C)NC(=O)[C@H](Cc2c[nH]c3ccccc23)NC(=O)[C@H](CC(=O)O)NC(=O)[C@H](Cc2ccc(O)cc2)NC1=O [Example 1312] ({CH2CO}-LYDWV[Bip]R[NMeA][NMeF]RLVTCG-NH2; thioether N-14)
760
